test system: Monocotyledonous and dicotyledonous weed; test: Post-emergence test experiment, weed control effect (Table 2); type: in vivo; set-up: key: Level 10: completely dead; Level 9: above 90% growth inhibition rate; Level 8: above 80% growth inhibition rate; Level 7: above 70% growth inhibition rate; Level 6: above 60% growth inhibition rate; Level 5: above 50% growth inhibition rate; Level 4: above 30% growth inhibition rate; Level 3: above 20% growth inhibition rate; Level 2: above 10% growth inhibition rate; Level 1: above 1-10% growth inhibition rate; Level 0: no effect; conditions: 30 g/ha, 3 weeks after spraying, greenhouse
measuredQuantity: weed control effect, Digitaria sanguinalis (level)

IN: Report weed control effect, Digitaria sanguinalis (level) for COCc1c(S(C)(=O)=O)ccc(C(=O)c2c(C)nn(C)c2OC(=O)c2cn(C)nc2C)c1Cl please.
OUT: 10
